These data points were gathered from paper PMC10285260.

- subject_of_test: human P450 51A1 (Homo sapiens, UniProt Q16850)
- Sequence (Q16850 1-509): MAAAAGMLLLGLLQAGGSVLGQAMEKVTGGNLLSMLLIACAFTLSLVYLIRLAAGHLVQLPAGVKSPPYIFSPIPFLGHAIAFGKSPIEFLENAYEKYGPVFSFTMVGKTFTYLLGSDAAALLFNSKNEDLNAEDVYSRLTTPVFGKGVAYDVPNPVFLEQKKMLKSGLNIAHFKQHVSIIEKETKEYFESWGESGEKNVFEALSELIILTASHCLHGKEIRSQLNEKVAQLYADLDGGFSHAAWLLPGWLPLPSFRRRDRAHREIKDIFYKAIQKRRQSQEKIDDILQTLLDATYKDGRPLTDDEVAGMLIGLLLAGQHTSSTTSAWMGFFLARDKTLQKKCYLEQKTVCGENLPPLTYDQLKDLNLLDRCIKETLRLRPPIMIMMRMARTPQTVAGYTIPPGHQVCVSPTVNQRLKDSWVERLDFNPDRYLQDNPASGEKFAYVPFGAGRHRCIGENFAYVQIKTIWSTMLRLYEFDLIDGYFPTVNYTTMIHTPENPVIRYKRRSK
- test: Single-turnover rapid-quench kinetics of [3-3H]-dihydrolanosterol oxidation (radio-HPLC)
- Assay type: biochemical
- Design: made in house; host or cells: Escherichia coli
- measurement_parameters: time 0.6 s
assay_endpoint: concentration in single-turnover reaction (µM)
Kindly answer with a numeric value in µM, unit omitted.

Please review the entries below; each comes with its answer.
CC(C)CCCC(C)[C@H]1CC[C@@]2(C)C3=C(CC[C@]12C)[C@@]1(C)CC[C@H](O)C(C)(C)C1CC3 (stereo partly shown) [dihydrolanosterol, 24,25-dihydrolanosterol] = 1.5253
CC(C)CCCC(C)[C@H]1CC[C@@]2(C=O)C3=C(CC[C@]12C)[C@@]1(C)CC[C@H](O)C(C)(C)C1CC3 (stereo partly drawn) [14α-CHO dihydrolanosterol, 24,25-dihydro-14α-formyl lanosterol] = 1.7976
CC(C)CCC[C@@H](C)[C@H]1CC=C2C3=C(CC[C@@]21C)[C@@]1(C)CC[C@H](O)C(C)(C)[C@@H]1CC3 [dihydro FF-MAS, 24,25-dihydro FF-MAS] = 2.506

Pending compound:
// fetch human P450 51A1 (Homo sapiens, UniProt Q16850) concentration in single-turnover reaction for CC(C)CCCC(C)[C@H]1CC[C@@]2(CO)C3=C(CC[C@]12C)[C@@]1(C)CC[C@H](O)C(C)(C)C1CC3 (stereo partly drawn) [14α-CH2OH dihydrolanosterol, 24,25-dihydro-14α-CH2OH lanosterol] 1.1711
